Assay: Primary qHTS for delayed death inhibitors of the malarial parasite plastid, 48 hour incubation
Settings: P. falciparum luciferase growth in erythrocytes; series mostly up to 28.7 µM
Out of some 310,000 compounds screened, about 18,000 (5.8%) were called active. Roughly 22% stayed inconclusive and do not appear here. Calls come from the whole dose curve; as a rule, active = well fitted inhibition curve with a large enough effect; inconclusive = small, poorly fitted or top-dose-only effect, or another doubt; inactive = no such curve, though single readings can be large or run the other way. For the sample, actives were picked, then their nearest neighbours and some compounds at random.
Response enum: 1 = active, 0 = inactive

For orientation, consider the following solved cases.
[
  {
    "MOLECULE": "COc1ccccc1N(C)S(=O)(=O)c1ccc(Cl)c(C(=O)Nc2ccncc2)c1",
    "LABEL_CLASS": 1
  },
  {
    "MOLECULE": "Cc1cc(OCC(=O)Nc2c(C)n(C)n(-c3ccccc3)c2=O)ccc1[N+](=O)[O-]",
    "LABEL_CLASS": 0
  },
  {
    "MOLECULE": "CC(=O)c1ccc(NC(=O)CCNS(=O)(=O)c2cc(Br)cnc2N)cc1",
    "LABEL_CLASS": 0
  },
  {
    "MOLECULE": "O=S(=O)(Nc1cccc(-n2cnnn2)c1)c1cnc(Cl)c(Cl)c1",
    "LABEL_CLASS": 0
  }
]

Just curious, what result did CCOC(=O)N1CCN(C(=O)C(C)NC(=O)c2ccco2)CC1 (configuration not stated) get here? 0

Recorded call for COc1ccc(CCNC(=O)CCC(=O)NC2CCCCC2)cc1OC ? 0

Status in this test for O=C(CN(CC1CCCO1)C(=O)CNS(=O)(=O)c1ccc(Cl)cc1)NCc1ccccc1 (configuration not stated) ? 0

Returns: the outcome recorded for CC(C)Cc1nnc(NC(=O)CCc2ccccc2)s1 in this assay. 0

Could you please tell me the result logged for COc1ccccc1NC(=O)CSc1nc2sc3c(c2c(=O)n1-c1ccccc1)CCN(C)C3 in this assay? 1

Identify the outcome logged in this assay for the molecule shown: COc1ccc(C(=O)Nc2ccc3nc(N4CCCCC4)cc(C)c3c2)cc1OC 1

# credit: PubChem BioAssay AID504832
